The measurements presented in this section are drawn from PubChem BioAssay.

Each entry below carries its recorded composite z-score.
assay: small-molecule binders of probe aLefty1, primary screen, biochemical, small-molecule microarray, 635/667 nm fluorescence (AID 1153); details: higher = more signal;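 further: score merges spot fluorescence with signal-to-noise ratio from the scanned slide images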
value-type: composite z-score

{"columns": ["compound", "value-type", "numeric-result"],
 "data": [
  ["CC(C)N1C(=O)c2ccccc2[C@@H](C(=O)NC2CC2)[C@@H]1c1ccc(CO)cc1", "composite z-score", 0.007],
  ["C=CCC(OC(C)=O)[C@@H]1[C@@H](N(Cc2cc3ccccc3o2)C(=O)Cc2ccc(F)cc2)c2cc(OCCCO)ccc2N1C(=O)c1ccc2ccccc2c1 (some centres undefined)", "composite z-score", 0.106],
  ["CCCC[C@@H]1C[C@H]1[C@@H](NC(=O)Cc1ccccc1)c1ccc(-c2ccccc2)cc1", "composite z-score", 0.369],
  ["O=C1O[C@@H](c2ccccc2)[C@@H](c2ccccc2)N2[C@@H](c3ccc(O)cc3)[C@]3(C(=O)Nc4ccc(C#CC5(O)CCCCCC5)cc43)[C@@H](C(=O)NC[C@H](O)c3ccccc3)[C@H]12", "composite z-score", 0.315],
  ["C=CCOC(=O)[C@H]1[C@@H]2C(=O)O[C@@H](c3ccccc3)[C@@H](c3ccccc3)N2[C@@H](c2ccc(OCCOC(=O)[C@@H]3C[C@@H]4C(=O)N[C@@H](CCCCNC(C)=O)C(=O)N4[C@@H]3c3ccc(O)cc3)cc2)[C@]12C(=O)Nc1ccc(I)cc12", "composite z-score", 0.471],
  ["Cc1ccc(S[C@]2(C(=O)NCC(F)(F)F)CC(=O)N(C3CCCCC3)[C@@H]2c2ccc(CO)cc2I)cc1", "composite z-score", -0.0879],
  ["CCOc1cc(C(O)C2C=CC3C(=O)N(C)C(=O)C3N2Nc2ccccc2)ccc1O (centres undefined)", "composite z-score", 0.0313],
  ["C=CCC(OC(C)=O)[C@@H]1[C@@H](N(Cc2ccc(-c3cccc(C(F)(F)F)c3)o2)C(=O)c2ccc(C)cc2)c2cc(OCCCO)ccc2N1C(=O)c1ccc2ccccc2c1 (some centres undefined)", "composite z-score", -0.147],
  ["C=C(CCCC)/C(=C/C[C@@H](OC(=O)c1ccncc1)c1ccccc1OCCO)c1cnc2ccccc2c1", "composite z-score", 0.541],
  ["COCCOC(=O)N1C(=O)[C@@]2(c3cc(C#CC4=CCCCC4)ccc31)[C@H](C(=O)N1CCCCCCC1)[C@H]1C(=O)O[C@H](c3ccccc3)[C@H](c3ccccc3)N1[C@@H]2c1ccc(O)cc1", "composite z-score", 0.93],
  ["O=C1C2C=CC(C(O)c3ccc(F)cc3)N(n3cnnc3)C2C(=O)N1Cc1ccccc1 (centres undefined)", "composite z-score", 0.041],
  ["O=C1O[C@@H](c2ccccc2)[C@@H](c2ccccc2)N2[C@@H](c3ccc(OCCO)cc3)[C@]3(C(=O)Nc4ccccc43)[C@@H](C(=O)O)[C@H]12", "composite z-score", 1.46],
  ["COc1cccc(/C=C/C=O)c1", "composite z-score", 0.212],
  ["C=CCC(OC(C)=O)[C@@H]1[C@@H](N(Cc2cccc3ccccc23)C(=O)Cc2ccc(OC)cc2)c2cc(OCCCO)ccc2N1C(=O)c1ccc2ccccc2n1 (some centres undefined)", "composite z-score", 0.164],
  ["C[C@@H]1ON(c2ccc(C(=O)OC(C)(C)C)cc2)[C@H](c2ccc(O)cc2)[C@H]1C(=O)N1C(=O)OC[C@H]1Cc1ccccc1", "composite z-score", 0.119],
  ["C=CC[C@]1(C(=O)NCCN2CCOCC2)N=C(c2ccc(OCCCO)cc2)O[C@H]1c1ccccc1CN=[N+]=[N-]", "composite z-score", -0.264],
  ["OCC1CC(c2ccccc2)=NO1 (centres undefined)", "composite z-score", 0.0278],
  ["CCCCO[C@H]1C[C@H]2C(I)=C[C@@H]1C(=O)[C@]21CO1", "composite z-score", -0.369],
  ["C#CCN([C@@H](Cc1ccc(O)cc1)C(=O)OC)[C@@H](/C=C/C1CC1)[C@H](O)Cc1ccccc1", "composite z-score", -0.294],
  ["CC1CC/C=C\\[C@H]2OC34C=CCN(C(C)C)C(=O)[C@H]3N(CCCCCCO)C(=O)[C@@H]4C2C(=O)O1 (some centres undefined)", "composite z-score", -0.45],
  ["O=C(NCC(F)(F)F)[C@@H]1c2ccccc2C(=O)N(Cc2cc(F)cc(C(F)(F)F)c2)[C@H]1c1ccc(CO)cc1", "composite z-score", 0.0494],
  ["O=C(CS)NCCCCCCNC(=O)[C@H]1C[C@H]2C(=O)N[C@@H](Cc3ccccc3)C(=O)N2[C@H]1c1ccc(O)cc1", "composite z-score", -0.54],
  ["CCOC(=O)c1ccc(NC(=O)O[C@H]2[C@H](OC(=O)Nc3ccc4c(c3)OCO4)[C@H](OC(=O)Nc3ccc4c(c3)OCO4)[C@@H](OC)O[C@@H]2CO)cc1", "composite z-score", 0.408],
  ["CN(C)CCCCNC(=O)[C@@H]1C[C@@H]2C(=O)N[C@@H](Cc3ccccc3)C(=O)N2[C@@H]1c1cccc(OCCO)c1", "composite z-score", 0.243],
  ["COc1cc2c(cc1OC)CN(C(=O)[C@@H]1[C@H]3C(=O)O[C@H](c4ccccc4)[C@H](c4ccccc4)N3[C@H](c3ccc(OCCO)cc3)[C@@]13C(=O)Nc1ccc(C#CC4(O)CCCCCC4)cc13)CC2", "composite z-score", 0.246],
  ["CC=CC(O)C1C=CC2C(=O)N(c3ccccc3)C(=O)C2N1Nc1ccccc1F (centres undefined)", "composite z-score", 0.762],
  ["C=C[C@@H](COC(C)=O)N(C(=O)OC(C)(C)C)S(=O)(=O)c1ccc(Br)cc1", "composite z-score", -0.105],
  ["CO[C@H]1O[C@H](CO)[C@@H](OC(=O)Nc2ccc3c(c2)OCO3)[C@H](OC(=O)c2cc3ccccc3[nH]2)[C@H]1OC(=O)c1cc2ccccc2[nH]1", "composite z-score", -0.0162],
  ["O=C1C2C=CC(C(O)c3ccc(Br)cc3)N(Nc3ccccc3F)C2C(=O)N1c1ccccc1 (centres undefined)", "composite z-score", -0.192]
]}
